- experimental target: Phosphatidylinositol 4,5-bisphosphate 3-kinase catalytic subunit delta isoform (Homo sapiens)
- Sequence (O00329 whole entry): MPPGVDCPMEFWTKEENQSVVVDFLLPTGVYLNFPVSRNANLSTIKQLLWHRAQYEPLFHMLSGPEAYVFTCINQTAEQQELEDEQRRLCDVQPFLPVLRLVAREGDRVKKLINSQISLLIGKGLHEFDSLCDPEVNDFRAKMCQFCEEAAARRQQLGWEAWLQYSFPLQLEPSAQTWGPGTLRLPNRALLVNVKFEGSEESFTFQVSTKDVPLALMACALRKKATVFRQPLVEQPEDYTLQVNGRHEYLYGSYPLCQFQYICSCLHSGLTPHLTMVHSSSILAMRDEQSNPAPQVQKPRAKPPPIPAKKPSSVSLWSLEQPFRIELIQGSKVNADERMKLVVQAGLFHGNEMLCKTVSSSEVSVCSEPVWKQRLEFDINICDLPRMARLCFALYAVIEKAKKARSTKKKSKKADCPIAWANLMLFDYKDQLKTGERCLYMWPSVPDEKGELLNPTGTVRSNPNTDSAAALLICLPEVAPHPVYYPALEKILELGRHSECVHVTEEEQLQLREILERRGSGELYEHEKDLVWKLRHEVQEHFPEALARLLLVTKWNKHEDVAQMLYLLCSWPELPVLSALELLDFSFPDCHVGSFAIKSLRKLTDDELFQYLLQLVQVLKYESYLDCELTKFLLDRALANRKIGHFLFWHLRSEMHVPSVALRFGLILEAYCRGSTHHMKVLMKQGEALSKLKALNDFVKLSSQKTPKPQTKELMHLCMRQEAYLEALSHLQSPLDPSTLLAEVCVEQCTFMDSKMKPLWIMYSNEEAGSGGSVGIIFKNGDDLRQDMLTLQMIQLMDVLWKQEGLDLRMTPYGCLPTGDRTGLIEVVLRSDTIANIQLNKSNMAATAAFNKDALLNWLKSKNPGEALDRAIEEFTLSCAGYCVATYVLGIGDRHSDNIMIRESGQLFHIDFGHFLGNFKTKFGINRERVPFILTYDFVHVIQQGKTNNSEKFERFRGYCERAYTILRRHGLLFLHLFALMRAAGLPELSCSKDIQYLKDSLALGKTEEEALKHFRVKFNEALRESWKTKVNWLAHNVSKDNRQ
- test method notes: Displacement of TAMRA-PIP3 from PI3Kdelta GRP-1 pleckstrin homology domain (unknown origin) assessed as formation of 3,4,5-inositoltriphosphate after 30 mins by fluorescence polarization assay
Assignment: determine reported pKi for the given compounds.
Numbers only, as −log10 of the molar value.

Record excerpt, results attached:
# structure smiles, pKi
measured = [
    ("CCNC(=O)Nc1ccc(-c2nc(N3CCOC[C@@H]3C)c3nc(C(C)(C)O)n(C)c3n2)cc1", 6.31),
    ("CCNC(=O)Nc1ccc(-c2nc(N3CCOC[C@@H]3C)c3ncn(C)c3n2)cc1", 6.05),
    ("CCNC(=O)Nc1ccc(-c2nc(N3CCOC[C@@H]3C)c3nc(C(C)(C)O)n(CCO)c3n2)cc1", 6.80),
]

We now examine a further compound.
Check the records and state pKi for CC(C)(O)c1nc2c(N3CCOCC3)nc(-c3cnc(N)nc3)nc2n1CCO 8.40
